Kd values by entry
Target: T1, soluble human CD3 epsilon chain (human, UniProt P07766 23-126)
T1 construct: also called CD3ε
T1 sequence (P07766 23-126 limits assumed): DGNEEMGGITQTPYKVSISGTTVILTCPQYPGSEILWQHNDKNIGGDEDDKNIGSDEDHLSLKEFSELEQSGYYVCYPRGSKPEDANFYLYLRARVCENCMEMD
Experiment: SPR
Recorded Endpoint: Kd (µM)

[
  {
    "Binder": "TR01H080-E22Hh/none-Hi-Kn010G3/L0000-k0 (antibody, V domains shown, one-arm) VH: QVQLVESGGGLVQPGRSLRLSCAASGFTFSNAWMHWVRQAPGKGLEWVAQIKDKSNNYATYYAESVKGRFTISRADSKNSIYLQMNSLKTEDTAVYYCRYVHYAAVRRRLSSYGVDIWGQGTTVTVSS VL: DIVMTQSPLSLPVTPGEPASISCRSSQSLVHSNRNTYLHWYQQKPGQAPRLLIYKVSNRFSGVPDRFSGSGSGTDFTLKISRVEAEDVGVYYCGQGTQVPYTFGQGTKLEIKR",
    "Unit Spec": "µM",
    "Reading": 0.00325
  },
  {
    "Binder": "TR01H071-E22Hh/none-Hi-Kn010G3/L0226-k0 (antibody, V domains shown, one-arm) VH: QVQLVESGGGLVQPGRSLRLSCAASGFTFSNAWMHWVRQAPGKGLEWVAQIKDKSNNYATYYAESVKGRFTISRADSKNSIYLQMNSLKTEDTAVYYCRYVHYAASYGVDIWGQGTTVTVSS VL: DIVMTQSPLSLPVTPGEPASISCRSSQSPVHSNRNTYIHWYQQKPGQAPRLLIYKVSNRFSGVPDRFSGSGSGTDFTLKISRVEAEDVGVYYCIQGTQVPYTFGQGTKLEIK",
    "Unit Spec": "µM",
    "Reading": 0.0251
  }
]
